conditions: in cyclohexane, 283.15 K
valueType: solubility (mole fraction)
Output: the number by itself.

stdin: Consider the compound Clc1cc(Cl)cc(Cl)c1 and give its measured solubility (mole fraction).
stdout: 0.147

###

details: in n-butanol, 278.15 K
valueType: solubility (mole fraction)
Form rule: numeric answer, no unit written next to it.

stdin: Quick one: solubility (mole fraction) of Clc1cc(Cl)cc(Cl)c1 ?
stdout: 0.0467

###

conditions: in isobutanol, 293.15 K
valueType: solubility (mole fraction)

stdin: Give its solubility (mole fraction) value. Item: Clc1cc(Cl)cc(Cl)c1
stdout: 0.0708

###

conditions: in acetone, 273.15 K
valueType: solubility (mole fraction)
Simply state the number, no unit and no words.

stdin: Would you kindly share the measured solubility (mole fraction) for Clc1cc(Cl)cc(Cl)c1 ?
stdout: 0.0419
